Taken from patent US8658568B2.

Here, each record is paired with measured pest or weed control at 140 g/ha data.
# Tested on: ABUTH = velvetleaf (Abutilon theophrasti)
# assay_overview: Postemergence herbicidal activity, velvetleaf
# Format: in vivo
# assay_setup: post-emergence, 336 h, post-emergent, rate 140 g ai/ha, visual score after 14 days (0 no injury, 100 complete kill), read-out: % Growth Reduction ABUTH
observation_type: pest or weed control at 140 g/ha (%)

• C[Si](C)(C)/C=C/c1c(N)nc(-c2ccc(Cl)cc2F)nc1C(=O)O = 100
• COC(=O)c1nc(-c2ccc(Cl)cc2)c(F)c(N)c1/C=C/[Si](C)(C)C = 90
• COc1c(Cl)ccc(-c2nc(N)c(/C=C/[Si](O)(O)O)c(C(=O)O)n2)c1F = 100
• C[Si](C)(C)/C=C/c1c(C(=O)O)nc(-c2ccc(Cl)c(F)c2)c(F)c1N = 65
• CCO[Si](/C=C/c1c(N)nc(-c2ccc(Cl)c(OC)c2F)nc1C(=O)OC)(OCC)OCC = 100
• COc1c(Cl)ccc(-c2nc(N)c(/C=C/[Si](C)(C)C)c(C(=O)O)n2)c1F = 100
• C[Si](C)(C)/C=C/c1c(N)nc(-c2ccc(Cl)c(F)c2F)nc1C(=O)O = 100
• COC(=O)c1nc(-c2ccc(Cl)c(OC)c2F)nc(N)c1/C=C/[Si](C)(C)C = 98
• COC(=O)c1nc(-c2ccc(Cl)cc2F)nc(N)c1/C=C/[Si](C)(C)C = 100
• C[Si](C)(C)/C=C/c1c(C(=O)O)nc(-c2ccc(Cl)cc2)c(F)c1N = 80
• CCOC(=O)c1nc(C2CC2)nc(N)c1/C=C/[Si](C)(C)C = 0
• COC(=O)c1nc(-c2ccc(Cl)c(F)c2F)nc(N)c1/C=C/[Si](C)(C)C = 100
• COC(=O)c1nc(-c2ccc(Cl)c(F)c2)c(F)c(N)c1/C=C/[Si](C)(C)C = 80
